molecular target: SARS-CoV-2 spike receptor binding domain (RBD) (SARS-CoV-2 Wuhan-Hu-1 (QHD43416), UniProt P0DTC2); experiment: cell-based or functional assay
ASSAY METRIC: NT50, plaque reduction neutralization test (PRNT), SARS-CoV-2 on Vero E6 cells (µg/mL)
Kindly answer with a numeric value in µg/mL, unit omitted.

For MD29 (scFv, V domains shown) VH: QMQLVQSGGGLVQPGGSLRLSCSASGFTFSTYVMNWVRQAPGKGPEHVSGISSDGGITYYADSVKGRFTISRDNSKNTLYLQMSSLRVEDTAVYYCVKDQDSSSWYDAFDIWGQGTMVTVSS VL: NIRLTQSPSSLSASVGDRVTITCRATQSISSYLNWYQQKPGKAPNLLIYAASSLQSGVPSRFSGSGSGTDFTLTISSLQPEDFATYYCHQTYTSPYTFGQGTKLEIK the binder record lists NT50, plaque reduction neutralization test (PRNT), SARS-CoV-2 on Vero E6 cells as 13

Documented NT50, plaque reduction neutralization test (PRNT), SARS-CoV-2 on Vero E6 cells of MD47 (scFv, V domains shown) V domain 1: QMQLVQSGGGLVQPGGSLRLSCAASGFTFSSYAMSWVRQAPGKGLEWVSAISSGGSTYYADSVKGRFTISRDNSKNTLYLQMNSLRAEDTAVYYCAKDLVTAPSYEAFDIWGQGTMITVSS V domain 2: NFMLTQPPSVSVAPGKTARITCGGNNIGSKSVHWYQQKPGQAPVLVIYYDSDRPSGIPERFSGSNSGNTATLTISRVEAGDEADYYCQVWDSSSHHHVVFGGGTKGTVL : 13

Entry MD17 (scFv, V domains shown) VH: EVQLLESGGGLVQPGGSLRLSCSASGFTFSTYVMNWVRQAPGKGLEHVSGISSDGGITYYADSVKGRFTISRDNSKNTLYLQMSSLRVEDTAVYYCVKDQDSSSWYDAFDIWGQGTMVTVSS VL: DIVMTQSPSSLSASVGDRVTITCRASQSISNYLNWYQQKLGKAPKLLTYAASRLQSGVPSRFSASGSGTEFTLTISSLQPEDFATYYCQQSYTTPLTFGGGTKLEIK , NT50, plaque reduction neutralization test (PRNT), SARS-CoV-2 on Vero E6 cells reported as 43

Measured NT50, plaque reduction neutralization test (PRNT), SARS-CoV-2 on Vero E6 cells, MD45 (scFv, V domains shown) VH: EVQLVQSGGGLVQPGGSLRLSCAASGFTVSSNYMTWVRQAPGKGLEWVSVIYSGGSTFYADSVKGRFTISRHNSKNTLYLQMNSLRAEDTAVYYCARDLSVRGGMDVWGQGTMVTVSS VL: EIVLTQSPGTLSLSPGERATLSCRASQSVNSSYLAWYQQKPGQAPRLLIYGASNRATGIPDRFSGSGSGTDFTLTISRLEPEDFAVYYCQQYGVSPEIIFGQGTRLEIK : 2.1
